# Target system: IFN-gamma (Homo sapiens, UniProt P01579 P01579:24-161)
# Sequence (P01579 24-161, one chain of several): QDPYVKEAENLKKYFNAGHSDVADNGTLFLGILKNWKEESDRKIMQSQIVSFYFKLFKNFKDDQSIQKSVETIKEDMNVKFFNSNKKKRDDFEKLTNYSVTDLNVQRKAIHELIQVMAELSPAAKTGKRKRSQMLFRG
# Protocol text: filter; printed as '12 4 nM', decimal uncertain
# Conditions used: tags: Genzyme (Cambridge MA); Upstate Biotechnology for early SELEX rounds; chain copies: 2 inferred
Measured parameter: Kd (nM)
A number alone suffices; assume nM.

INPUT: Report measured Kd; entry is IFN-gamma 2'NH2-17 truncate (ssRNA, 2'-NH2 all C and U) RNA: GGGAGGACGAUGCGGUGGUAGCGCGAUAUAGCGCUGGUAGGGUUGCCGGUG
OUTPUT: 12.4
